This section presents molecules with their documented TGI values.
System: HOP-62 NSCLC
Assay: NCI tumour cell line growth inhibition, 48 h

Worked cases, TGI given:
| Molecule | Test target | Readout type | Reported value |
| --- | --- | --- | --- |
| O=C1C(Cl)C(c2cc(Br)ccc2O)N1n1cnc2ccccc2c1=O (configuration not stated) | HOP-62 NSCLC | TGI | > 100 µM |
| CC(C)CC(NC(=O)C(Cc1ccccc1)NC(=O)[C@H]1CC[C@H](NC(=O)C(Cc2ccc(OC(C)(C)C)cc2)NC(=O)OC(C)(C)C)C1)C(N)=O (some centres not stated) | HOP-62 NSCLC | TGI | > 100 µM |
| CC(=O)Nc1ccccc1S(=O)(=O)c1ccccc1 | HOP-62 NSCLC | TGI | > 100 µM |

# input Dear colleague, please send me the reported TGI for `COC(=O)c1c(C)c2n(c1C)C(=O)C(c1ccccc1)=C2` when you can.
# output > 100 µM

# input Dear colleague, please send me the reported TGI for `O=C1NC(N/N=C/c2cccs2)=N/C1=C\c1ccco1` when you can.
# output > 100 µM

# input Dear colleague, please send me the reported TGI for `COc1ccc2c(c1)[n+](=O)c(C(=O)C/C(=N/NC(=O)c1ccccc1O)C(=O)Nc1ccc(Cl)c(C(F)(F)F)c1)c(C)n2[O-]` when you can.
# output > 100 µM

# input Dear colleague, please send me the reported TGI for `O=C(O)CNCP(=O)(O)O` when you can.
# output > 100 µM

# input Dear colleague, please send me the reported TGI for `COc1ccc(Nc2nc3cc(C(F)(F)F)ccc3n3cccc23)cc1OC` when you can.
# output 48.7 µM
